Test system: PC-3
protocol: NCI tumour cell line growth inhibition, 48 h
Activity calls are given as the source filed them. Rule as the data show it: active = GI50 up to about 1.1 µM and inactive = higher.
Hi there, I'd appreciate the recorded GI50 for every entry that follows.

Q: Please report the recorded GI50 for `NC(=O)NC(=O)c1cccc(CNc2ccc(C(=O)N[C@@H](CCC(=O)O)C(=O)O)cc2)n1` .
Result: > 100 µM (inactive)

Q: Let us now turn to NC(Cc1ccccc1)c1nn[nH]n1 (stereo not drawn)
Result: > 100 µM (inactive)

Q: Also `NC(=S)N/N=C(/C(=O)Nc1nc2ccc([N+](=O)[O-])cc2s1)C1C(=O)NC(=S)NC1=O` ?
Result: 63.1 µM (inactive)
